targetEntity: T1, ARM repeat domain of human β-catenin (residues 134–671) (human, UniProt P35222 134-671)
T1 construct: β-catenin, human, ARM repeat domain, residues 134–671; Plasmid was a gift from W.I. Weis; source: E. coli C41, purified (glutathione-Sepharose 4B, thrombin cleavage on resin, Mono-Q)
T1 sequence (looked up): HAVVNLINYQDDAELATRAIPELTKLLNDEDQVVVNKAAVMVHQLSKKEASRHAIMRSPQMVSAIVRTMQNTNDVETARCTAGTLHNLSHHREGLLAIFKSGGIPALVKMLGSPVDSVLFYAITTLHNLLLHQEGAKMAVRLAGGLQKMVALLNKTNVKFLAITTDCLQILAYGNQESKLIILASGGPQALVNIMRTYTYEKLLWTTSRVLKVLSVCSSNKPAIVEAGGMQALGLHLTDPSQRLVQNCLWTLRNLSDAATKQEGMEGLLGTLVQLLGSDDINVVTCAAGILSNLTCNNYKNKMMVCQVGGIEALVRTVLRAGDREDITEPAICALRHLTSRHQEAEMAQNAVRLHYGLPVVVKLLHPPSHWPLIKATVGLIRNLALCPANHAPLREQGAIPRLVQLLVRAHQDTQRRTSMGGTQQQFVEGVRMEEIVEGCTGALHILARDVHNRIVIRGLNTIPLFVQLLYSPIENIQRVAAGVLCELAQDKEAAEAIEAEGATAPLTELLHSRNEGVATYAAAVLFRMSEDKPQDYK
protocolSummary: fluorescence spectroscopy kinetics (dissociation, fluorimeter); pre-formed 1:1 complex of labelled TCF7L2 and β-catenin mixed 1:1 with 50-times molar excess of unlabelled TCF7L2; PBS, 1 mM DTT, 15 °C; fitted to sums of exponential phases
assayContext: both partners purified
No end group written: not given here.
Listed here: items and their measured koff,major (major slow phase of biphasic dissociation).
valueType: koff,major (major slow phase of biphasic dissociation) (s⁻¹)

- binder: "TCF7L2 (1–54) S31C D23A E24A E26A E28A E29A (5X), fluorescein-labelled (domain or fragment, UniProt Q9NQB0 1-54, looked up, One extra serine is left behind after thrombin cleavage of the tag; also called quintuple mutant; 5X variant; source: E. coli C41, purified (Ni-NTA, thrombin cleavage, Superdex 75), labelled with fluorescein maleimide) MPQLNGGGGDDLGANDELISFKAAGAQAAKC(fluorescein maleimide)SENSSAERDLADVKSSLVNESET"
  unitSpec: "s⁻¹"
  endpointValue: 0.000295
- binder: "TCF7L2 (1–54) S31C L12A, fluorescein-labelled (domain or fragment, UniProt Q9NQB0 1-54, looked up, One extra serine is left behind after thrombin cleavage of the tag; source: E. coli C41, purified (Ni-NTA, thrombin cleavage, Superdex 75), labelled with fluorescein maleimide) MPQLNGGGGDDAGANDELISFKDEGEQEEKC(fluorescein maleimide)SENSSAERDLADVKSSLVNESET"
  unitSpec: "s⁻¹"
  endpointValue: 0.000977
- binder: "TCF7L2 (1–54) S31C E29A, fluorescein-labelled (domain or fragment, UniProt Q9NQB0 1-54, looked up, One extra serine is left behind after thrombin cleavage of the tag; source: E. coli C41, purified (Ni-NTA, thrombin cleavage, Superdex 75), labelled with fluorescein maleimide) MPQLNGGGGDDLGANDELISFKDEGEQEAKC(fluorescein maleimide)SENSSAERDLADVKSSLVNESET"
  unitSpec: "s⁻¹"
  endpointValue: 0.000897
- binder: "TCF7L2 (1–54) S31C K45A, fluorescein-labelled (domain or fragment, UniProt Q9NQB0 1-54, looked up, One extra serine is left behind after thrombin cleavage of the tag; source: E. coli C41, purified (Ni-NTA, thrombin cleavage, Superdex 75), labelled with fluorescein maleimide) MPQLNGGGGDDLGANDELISFKDEGEQEEKC(fluorescein maleimide)SENSSAERDLADVASSLVNESET"
  unitSpec: "s⁻¹"
  endpointValue: 0.00219
- binder: "TCF7L2 (1–54) S31C E38A, fluorescein-labelled (domain or fragment, UniProt Q9NQB0 1-54, looked up, One extra serine is left behind after thrombin cleavage of the tag; source: E. coli C41, purified (Ni-NTA, thrombin cleavage, Superdex 75), labelled with fluorescein maleimide) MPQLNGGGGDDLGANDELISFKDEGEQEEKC(fluorescein maleimide)SENSSAARDLADVKSSLVNESET"
  unitSpec: "s⁻¹"
  endpointValue: 0.000539
- binder: "TCF7L2 (1–54) S31C N15A, fluorescein-labelled (domain or fragment, UniProt Q9NQB0 1-54, looked up, One extra serine is left behind after thrombin cleavage of the tag; source: E. coli C41, purified (Ni-NTA, thrombin cleavage, Superdex 75), labelled with fluorescein maleimide) MPQLNGGGGDDLGAADELISFKDEGEQEEKC(fluorescein maleimide)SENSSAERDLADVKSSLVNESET"
  unitSpec: "s⁻¹"
  endpointValue: 0.000442
- binder: "TCF7L2 (1–54) S31C E17A, fluorescein-labelled (domain or fragment, UniProt Q9NQB0 1-54, looked up, One extra serine is left behind after thrombin cleavage of the tag; source: E. coli C41, purified (Ni-NTA, thrombin cleavage, Superdex 75), labelled with fluorescein maleimide) MPQLNGGGGDDLGANDALISFKDEGEQEEKC(fluorescein maleimide)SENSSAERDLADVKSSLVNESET"
  unitSpec: "s⁻¹"
  endpointValue: 0.00891
- binder: "TCF7L2 (1–54) S31C E26A, fluorescein-labelled (domain or fragment, UniProt Q9NQB0 1-54, looked up, One extra serine is left behind after thrombin cleavage of the tag; source: E. coli C41, purified (Ni-NTA, thrombin cleavage, Superdex 75), labelled with fluorescein maleimide) MPQLNGGGGDDLGANDELISFKDEGAQEEKC(fluorescein maleimide)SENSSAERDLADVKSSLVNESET"
  unitSpec: "s⁻¹"
  endpointValue: 0.000474
